Assay: AUC in Sprague-Dawley rat at 30 mg/kg, po qd
Format: ADME, organism-based
Parameters: dose 30 mg/kg, route oral
Conditions: plasma
Recorded Endpoint: AUC (µM·h)
One number for each entry, in µM·h.

Task: Determine from records and report AUC for CC1(C)Oc2nc(C(F)(F)F)nc(N)c2N=C1c1ccc2c(c1)CC[C@]21CC[C@@H](CC(=O)O)CC1
Result: 78

###

Test: Oral bioavailability in beagle dog at 2 mg/kg
Assay type: ADME, organism-based, Canis lupus familiaris
Settings: in vivo
Recorded Endpoint: bioavailability (%)
Answers are plain numbers, in %.

Task: Determine from records and report bioavailability for CC1(C)Oc2nc(C(F)(F)F)nc(N)c2N=C1c1ccc2c(c1)CC[C@]21CC[C@@H](CC(=O)O)CC1
Result: 22
